Entry source: PubChem BioAssay (NCI)

Tested on: IGROV1 ovarian
Protocol text: NCI tumour cell line growth inhibition, 48 h
Endpoint label: TGI

Report TGI on IGROV1 ovarian for this entry: `CC(C)CCOC(=O)NC(Nc1ccc(F)cc1)(C(F)(F)F)C(F)(F)F`
> 100 µM

Using IGROV1 ovarian as the test system, report measured TGI of `O=C(O)/C=C\C(=O)Nn1c(Cc2ccc(Cl)cc2)n[nH]c1=O` .
> 100 µM

Give measured TGI for C[C@H](C1CC2(C)OC2(C)C(=O)O1)[C@H]1CC[C@H]2[C@@H]3[C@@H]4O[C@@H]4[C@@]4(O)CC=CC(=O)[C@]4(C)[C@H]3CC[C@]12C (some centres undefined) (IGROV1 ovarian).
> 50 µM

Jot down TGI (IGROV1 ovarian) of [N-]=[N+]=NCC(O)Cn1cnc2c(NC(=O)c3ccccc3)ncnc21 (centres undefined) .
> 100 µM

Fetch value of TGI on IGROV1 ovarian for `Clc1cc(Cl)ncn1` .
> 100 µM

# assay system IGROV1 ovarian: give TGI of CC1CCC2(OC1)OC1C(O)C3C4CCC5CC(OC6OC(CO)C(OC7OC(CO)C(O)C(OC8OCC(O)C(O)C8O)C7OC7OC(CO)C(O)C(OC8OC(CO)C(O)C(O)C8O)C7O)C(O)C6O)C(O)CC5(C)C4CCC3(C)C1C2C (centres undefined)
6.7 µM

Please respond with reported TGI (system IGROV1 ovarian) for `COC(NC(=O)Nc1ccccc1C)(C(F)(F)F)C(F)(F)F` .
> 100 µM

// fetch TGI; item: `COC(=O)Cn1cnc2c(Cl)nc(Nc3ccccc3)nc21` ; system: IGROV1 ovarian
56.1 µM

Supply TGI measured with IGROV1 ovarian for `COc1ccc(C(=O)c2cc(C)c(OC)c(C)c2)c(OC)c1NC(C)=O` .
> 100 µM

====

System: MCF7 breast
Protocol text: NCI tumour cell line growth inhibition, 48 h
What TGI was measured for each of the following?
Write the value in µM as a bare number.

# return recorded TGI for entry `COc1ccc(C(=O)/C=C/c2cc(-c3cc(OC)c(OC)c(OC)c3)n[nH]2)cc1`
2.96

Retrieve TGI measured for `O=[N+]([O-])/C(C(Cl)=C(Cl)Cl)=C(/Nc1cccc2cccnc12)n1nnc2ccccc21` and print it.
46.3

Specify TGI for CCCCCCCCC#CCCCCCCCCCC[C@@H]1C(=O)O[C@H](C)[C@@H]1O (tested in a mixture with another compound) and stop.
50.5

Respond only with TGI recorded for `O=C(/C=C/C=C/c1ccccc1)c1ccco1`
21.6

Supply recorded TGI for N#CC1=C(N)Oc2c(ccc3ccccc23)C1c1cc(=O)oc2ccc(Cl)cc12 (centres undefined) here.
22.1

Tell me TGI reported for `CS(=O)(=O)c1ccc(Nc2nc(N[C@H]3CCCC[C@H]3N)nc3cc[nH]c(=O)c23)cc1`
13.4

====

Tested on: MALME-3M melanoma
Protocol text: NCI tumour cell line growth inhibition, 48 h
I'd be grateful if you could share measured TGI for these entries.
The reply should be a number in µM, with the unit left off.

Print MALME-3M melanoma TGI for `Clc1ccc(C2=CCN3CC=C(c4ccc(Cl)cc4)C23)cc1` .
27.3

Give the observed TGI of `CS(=O)(=O)c1ccc(Nc2nc(N[C@H]3CCCC[C@H]3N)nc3cc[nH]c(=O)c23)cc1` for MALME-3M melanoma.
4.64

====

Tested on: DU-145 prostate
Protocol text: NCI tumour cell line growth inhibition, 48 h
Endpoint label: TGI

Please give measured TGI of the following entry: `Clc1cc(Cl)ncn1`
> 100 µM

Quickly give me recorded TGI for `O=C(O)/C=C\C(=O)Nn1c(Cc2ccc(Cl)cc2)n[nH]c1=O`
> 100 µM

Supply TGI value. Item: `CC(=O)C(C)(C)CCC(C)(C)C(C)=O`
> 100 µM

Find the measured TGI of `ClCc1ccccc1Cn1cnc2ncnc(Cl)c21` and report it.
10.1 µM

Determine from records and report TGI for `CC1(C)CC[C@]2(C(=O)O)CC[C@]3(C)[C@H](C(=O)C=C4[C@@]5(C)C=C(C#N)C(=O)C(C)(C)[C@@H]5CC[C@]43C)[C@@H]2C1`
2.39 µM

Read the entry `CCNc1cc2c3c(c1)CCN3CCC2` and write its reported TGI.
> 10 µM

State its TGI for this molecule: O=C(O)c1cccc(NC(C(=O)c2ccccc2)c2ccccc2)c1 (stereo unspecified)
> 100 µM

Tell me measured TGI for O=c1[nH]c(=O)n(C2OC(CO)C(O)C2O)cc1OCCCc1ccccc1 (stereo unspecified) please.
> 100 µM

Supply measured TGI of CCOc1cc2c(cc1O)C(O)C[C@@H]1[C@@H]2CC[C@]2(C)[C@@H](O)CC[C@@H]12 (stereo partly specified) in your reply.
> 74 µM

Indicate the recorded TGI value for this molecule: CC1CCC2(OC1)OC1C(O)C3C4CCC5CC(OC6OC(CO)C(OC7OC(CO)C(O)C(OC8OCC(O)C(O)C8O)C7OC7OC(CO)C(O)C(OC8OC(CO)C(O)C(O)C8O)C7O)C(O)C6O)C(O)CC5(C)C4CCC3(C)C1C2C (stereo unspecified)
4.63 µM

For the molecule C=C1CC(C)(c2cccc(Nc3nc4ccccc4c4occc34)c2)OC1=O (stereo unspecified) , report TGI.
19.9 µM

Please indicate TGI recorded for COc1ccccc1C1C(C#N)=C(N)Oc2n[nH]c(C)c21 (stereo unspecified)
> 100 µM

Give the reported value of TGI for this record: `O=C(NCC(F)(F)F)Nc1cccc(-c2cnc3cc(-c4ccc(F)cc4)ccn23)c1`
> 100 µM

Answer with the recorded TGI of `O=C(Nc1nn[nH]n1)c1nc(-c2ccccc2)cc(=O)[nH]1` only.
> 100 µM

Give reported TGI value for `O=C(O)/C(Cc1ccnc2ccccc12)=N\O`
> 100 µM

Give the measured TGI for `O=C(CN(/C=C/C(=O)C(F)(F)F)c1ccc(Cl)cc1)c1ccc(Cl)c(Cl)c1`
33.4 µM

Read the entry `O=C(O)c1ccccc1C1c2ccccc2Oc2ccccc21` and write its reported TGI.
> 100 µM

State, in one line, measured TGI of `CCOC(=O)c1cc(Br)c(-c2onc(C)c2Br)[nH]1`
> 100 µM

Could you please provide reported TGI for Cc1ccccc1NC(=O)CC(=O)NNC(Sc1ccccc1)c1cc(N=Nc2ccc(Br)cc2)ccc1O (stereo unspecified) ? Thanks!
> 10 µM

Return value of TGI for input `O=c1c2nc(-c3ccccc3)oc2n(-c2ccccc2)c(=O)n1-c1ccccc1` , no commentary.
> 100 µM

Identify measured TGI associated with `O=C(Nc1ccccc1I(=O)=O)C1CCCCC1`
> 100 µM

====

Tested on: SR leukemia
Protocol text: NCI tumour cell line growth inhibition, 48 h; in the data active = GI50 below about 0.43 µM; inactive = the rest
Pick from active, inactive when you respond.

In this assay, the call recorded for `c1ccc(OCCC[P+](c2ccccc2)(c2ccccc2)c2ccccc2)cc1` was what?
inactive

I would be grateful if you could indicate the recorded call for `CS(=O)(=O)Nc1cccc(-c2ccc3ncnc(Nc4ccc(F)c(Cl)c4)c3c2)c1` .
inactive

Recorded call for `O=C(NCC(F)(F)F)Nc1cccc(-c2cnc3cc(-c4ccc(F)cc4)ccn23)c1` ?
active

Hi, do you know how `CCCc1cc(=O)n2c(C(=O)Nc3ccc(F)cc3)c(C(=O)Nc3ccc(F)cc3)sc2n1` came out in this test?
inactive

Identify the outcome logged in this assay for the compound shown: `Cc1c(C#N)cccc1[C@@H](C)Nc1nnc(C)c2cnc(N3CCOCC3)cc12`
inactive

====

System: MOLT-4 leukemia
Protocol text: NCI tumour cell line growth inhibition, 48 h
Endpoint label: TGI

For MOLT-4 leukemia, give TGI of the listed compound: `Cc1nc(Nc2ccccc2Cl)sc1C(=O)CC(=O)C(N)=O`
> 100 µM

State measured TGI of the compound `COc1cc(/C=C/c2ccc(O)c(OC)c2)cc(OC)c1` with MOLT-4 leukemia.
> 100 µM

Please report the measured TGI for N#Cc1ccccc1NC(=O)C(=O)C1NC(=S)NC1=O (stereo unspecified) tested on MOLT-4 leukemia.
> 100 µM

Report TGI under test system MOLT-4 leukemia for CC1(C)Oc2ccc3c(=O)cc(-c4ccccc4)oc3c2C1C(=O)O (stereo unspecified) .
> 100 µM

Give TGI for this entry on MOLT-4 leukemia: `O=C(O)/C(Cc1cn[nH]n1)=N\O`
> 100 µM

Give TGI only, for CC(=O)OC12C=C(C)C(C(C)C1)C1C(=O)N(CCN3CCCCC3)C(=O)C12 (stereo unspecified) , using MOLT-4 leukemia data.
> 50 µM

Using MOLT-4 leukemia as the test system, report measured TGI of `O=C(NCC(F)(F)F)Nc1cccc(-c2cnc3cc(-c4ccc(F)cc4)ccn23)c1` .
> 29 µM

Answer with TGI of `COC(=O)Cn1cnc2c(Cl)nc(Nc3ccccc3)nc21` measured for MOLT-4 leukemia.
84.7 µM

Report the value of TGI obtained on MOLT-4 leukemia for CCSC1=CC2(O)N(CCc3ccc(OC)c(OC)c3)C(=O)CC2(C(=O)OC)CC1=O (stereo unspecified) .
90.8 µM

Send back MOLT-4 leukemia TGI of `O=C1NC(N2CCOCC2)=N/C1=C\c1ccc(O)cc1` only.
> 100 µM

Name the recorded TGI of `Cc1c2cccc-2ccc2c3ccccc3n(C(=O)c3ccc(Cl)cc3)c12` , assay system MOLT-4 leukemia.
> 100 µM

Give TGI only, for `CSc1nc2nc3c(nc2c(=O)n1C)C(=O)c1ccccc1C3=O` , using MOLT-4 leukemia data.
0.581 µM

Supply TGI measured with MOLT-4 leukemia for O=C1C2C=CC(n3[nH]c(=O)n(Cc4ccccc4)c3=O)CC2C(=O)N1c1ccc(Br)cc1 (stereo unspecified) .
> 100 µM

Lab note: MOLT-4 leukemia assay, enter TGI for `O=C(O)/C=C\C(=O)Nn1c(Cc2ccc(Cl)cc2)n[nH]c1=O` here
> 100 µM

# lookup: MOLT-4 leukemia TGI, key = CCCCCCCCC#CCCCCCCCCCC[C@@H]1C(=O)O[C@H](C)[C@@H]1O (tested in a mixture with another compound)
33.5 µM

Under MOLT-4 leukemia: report TGI of `CS(=O)(=O)c1ccc(Nc2nc(N[C@H]3CCCC[C@H]3N)nc3cc[nH]c(=O)c23)cc1` .
17.5 µM

Jot down TGI (MOLT-4 leukemia) of `COc1ccc2oc3c(OC)c(OC)c(OC)cc3c(=O)c2c1` .
> 100 µM

Provide measured TGI on MOLT-4 leukemia for `CCCCCCSSC(=S)N(CC)CC` please.
44.5 µM

Enter TGI (test system MOLT-4 leukemia) for `O=C(O)c1ccccc1C1c2ccccc2Oc2ccccc21`
> 100 µM

Report value only: TGI, MOLT-4 leukemia, `Cc1c([C@H](C)[C@@H]2NC[C@@H](C)C[C@H]2O)ccc2c1C[C@H]1[C@H]2CC=C2C[C@@H](O)CC[C@@]21C`
37.4 µM

Please report TGI with MOLT-4 leukemia for item `CC(C)CCOC(=O)NC(Nc1ccc(F)cc1)(C(F)(F)F)C(F)(F)F` .
76.8 µM
